Test system: HaCaT
Method Description: Anti-inflammatory activity in human HaCaT cells assessed as inhibition of LPS-induced occluding expression at 25 uM after 24 hrs by FACS analysis (rvb = 30.17 +/- 5.98)
Assay type: functional
Catalogue of Flu intensity values
Give only the figure.

# annotated cases, reported Flu intensity shown
[[record]]
compound = "CC1=C(CCc2ccoc2)[C@@]2(C)CC[C@@H](O)C(C)(C)[C@@H]2[C@H](O)C1=O"
system = "HaCaT"
result_value = 21.1

[[record]]
compound = "C[C@@H]1C(=O)C[C@H]2C(C)(C)[C@H](O)CC[C@]2(C)[C@@]1(O)CCc1ccoc1"
system = "HaCaT"
result_value = 24.34

[[record]]
compound = "CC1=C(CCC2=CC(O)OC2=O)[C@@]2(C)CC[C@@H](O)C(C)(C)[C@@H]2CC1=O (some centres undefined)"
system = "HaCaT"
result_value = 13.83


Given the entry "CO[C@@H]1C[C@@]2(CC[C@@]3(O2)[C@H](C)C(=O)C[C@H]2C(C)(C)[C@H](O)CC[C@@]23C)C(=O)O1" , what Flu intensity was observed with HaCaT?
18.73
